System: cucumber seedlings
Assay: Safety for plant growth after application
Type: in vivo
Settings: dosage 200 ppm
endpoint: safety for plant growth (discoloration, necrosis, wilt, malformation)

For orientation, consider the following solved cases.
1) O=C(OCCO)c1cn(C2CC2)c2ccc(Cl)cc2c1=O : safe for plant growth
2) COc1cc2c(cc1F)c(=O)c(C(=O)OCCCO)cn2C1CC1 : safe for plant growth
3) COCCOC(=O)c1cn(C2CC2)c2cc(SCC(F)(F)F)c(F)cc2c1=O : safe for plant growth
4) O=C(OCCO)c1cn(C2CC2)c2cc(OCC(F)(F)F)c(F)cc2c1=O : safe for plant growth
5) CCNc1cc2c(cc1F)c(=O)c(C(=O)OCCOC)cn2C1CC1 : safe for plant growth

Q: Answer with the recorded safety for plant growth (discoloration, necrosis, wilt, malformation) of CCOCCOC(=O)c1cn(C2CC2)c2cc(SCC)c(F)cc2c1=O only.
Ans: safe for plant growth

Q: Answer with the recorded safety for plant growth (discoloration, necrosis, wilt, malformation) of O=C(OCCCCO)c1cn(C2CC2)c2cc(Cl)c(F)cc2c1=O only.
Ans: safe for plant growth

Q: Answer with the recorded safety for plant growth (discoloration, necrosis, wilt, malformation) of CCNc1cc2c(cc1F)c(=O)c(C(=O)OCCO)cn2C1CC1 only.
Ans: safe for plant growth

Q: Answer with the recorded safety for plant growth (discoloration, necrosis, wilt, malformation) of CCOc1ccc2c(=O)c(C(=O)OCCOC)cn(C3CC3)c2c1 only.
Ans: safe for plant growth

Entry source: patent US20250313533A1
